assay_name: physchem
test_settings: water
Counter-ions that a name gives are not always drawn.
assay_endpoint: solubility

[in] Suppose we examine the molecule O=C(Nc1cc(C(F)(F)F)cc(C(F)(F)F)c1)c1cc(Cl)ccc1OP(=O)([O-])O.[Na+] [mono sodium salt] ; what solubility value has been reported?
[out] ~5000 µg/mL

[in] Suppose we examine the molecule O=C(Nc1cc(C(F)(F)F)cc(C(F)(F)F)c1)c1cc(Cl)ccc1OP(=O)([O-])[O-].[Na+].[Na+] ; what solubility value has been reported?
[out] ~10000 µg/mL

[in] Suppose we examine the molecule O=C(Nc1cc(C(F)(F)F)cc(C(F)(F)F)c1)c1cc(Cl)ccc1OP(=O)(O)O [bis ethanolamine salt] ; what solubility value has been reported?
[out] ~10000 µg/mL

[in] Suppose we examine the molecule NCCO.O=C(Nc1cc(C(F)(F)F)cc(C(F)(F)F)c1)c1cc(Cl)ccc1OP(=O)(O)O [mono ethanolamine salt] ; what solubility value has been reported?
[out] ~5000 µg/mL

* * *

assay_name: physchem
test_settings: pH 7, aqueous buffer
assay_endpoint: solubility (µg/mL)
Give your result in µg/mL as a bare value.

[in] Suppose we examine the compound O=C(Nc1cc(C(F)(F)F)cc(C(F)(F)F)c1)c1cc(Cl)ccc1OP(=O)(O)O ; what solubility value has been reported?
[out] 5000
